Test system: GFP-transfected Plasmodium berghei ANKA strain
assay-info: Plasmodium berghei mouse model, standard Peter's four-day test
Type: in vivo
measurement-conditions: NMRI female mice, oral, 1 mg/kg 4x (once a day for four days)
Text: Plasmodium species that lead to human malarial infection are essentially unable to infect non-primate animal models. Rodent models as antimalarial drug discovery efficacy models for compound screening have been extensively used and validated for use through the identification of several antimalarial drugs such as mefloquine, and artemisinin derivatives. Such mouse models, including the Plasmodium berghei mouse model are an integral part of the drug discovery and development pathway. […]
quantity: Mean Survival (days)
Kindly provide the numeric value in days only, without the unit symbol.

smiles-text: O=C(NCCN1CCCC1)c1cc(-c2ccc(CN3CCOCC3)cc2F)nc2ccc(F)cc12
measured-target: GFP-transfected Plasmodium berghei ANKA strain
Mean Survival (days): 11
//
smiles-text: O=C(NCCN1CCCC1)c1cc(-c2ccc(CN3CCOCC3)c(F)c2)nc2ccc(F)cc12
measured-target: GFP-transfected Plasmodium berghei ANKA strain
Mean Survival (days): 11
//
smiles-text: O=C(NCCN1CCCC1)c1cc(-c2ccc(CN3CCOCC3)cc2)nc2ccc(F)cc12
measured-target: GFP-transfected Plasmodium berghei ANKA strain
Mean Survival (days): 14

Below: the item to evaluate.
The compound O=C(NCCN1CCCC1)c1cc(-c2ccc(CN3CCS(=O)(=O)CC3)cc2)nc2ccc(F)cc12 showed Mean Survival equal to 7
